- ASSAY_TARGET: fatty acyl CoA:cholesterol acyl transferase (ACAT) (Rattus norvegicus)
- Construct: Rat adrenals were homogenized in 0.2M monobasic potassium phosphate buffer; from tissue; host or cells: rat adrenals, 1000 x g supernatant of the homogenate containing the microsomal fraction
- Sequence (O70536 whole entry): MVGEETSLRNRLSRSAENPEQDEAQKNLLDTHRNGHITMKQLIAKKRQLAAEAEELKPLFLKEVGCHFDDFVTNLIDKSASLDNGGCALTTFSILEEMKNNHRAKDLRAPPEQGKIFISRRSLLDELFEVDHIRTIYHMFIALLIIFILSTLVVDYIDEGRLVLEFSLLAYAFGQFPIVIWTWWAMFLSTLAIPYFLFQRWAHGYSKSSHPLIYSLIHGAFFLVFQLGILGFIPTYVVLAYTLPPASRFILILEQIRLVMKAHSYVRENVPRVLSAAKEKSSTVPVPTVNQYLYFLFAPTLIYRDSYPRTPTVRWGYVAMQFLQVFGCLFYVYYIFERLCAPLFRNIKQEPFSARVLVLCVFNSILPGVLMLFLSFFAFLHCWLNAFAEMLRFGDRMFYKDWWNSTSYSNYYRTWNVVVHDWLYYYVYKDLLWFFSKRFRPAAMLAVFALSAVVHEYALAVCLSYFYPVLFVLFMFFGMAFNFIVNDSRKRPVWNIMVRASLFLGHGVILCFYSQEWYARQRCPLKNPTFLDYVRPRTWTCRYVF
- PROTOCOL_DETAILS: Inhibition of fatty acyl CoA:cholesterol acyl transferase (ACAT) in vitro (rat adrenal supernatant, oleoyl CoA-14C)
- Type: biochemical
- CONDITION_LABEL: pH 7.4, rat adrenal supernatant, final concentration 5.2 μg./ml., 37° C.
What inhibition at 5.2 µg/mL was measured for each of the following?
Give bare numbers, in %.

Use the examples below as a reference point.
{"columns": ["SMILES_DATA", "inhibition at 5.2 µg/mL (%)"],
 "data": [
  ["CCOC(=O)c1ccc(NCCCCCCCCCCCCCC[Si](C)(C)C)cc1", 50],
  ["CCOC(=O)c1ccc(NCCC[Si](C)(C)C)cc1", 59],
  ["C[Si](C)(C)CCCCCCCCCCCNc1ccc(C(=O)O)cc1", 57],
  ["C[Si](C)(C)CCCNc1ccc(C(=O)O)cc1", 12],
  ["CCOC(=O)c1ccc(NCCCCCCCCCCC[Si](C)(C)C)cc1", 17]
]}

Kindly consider the entry below.
Req: For the compound C[Si](C)(C)CCCCCCCCCCCCCCNc1ccc(C(=O)O)cc1 , what inhibition at 5.2 µg/mL is on record?
Resp: 60

These entries and their values trace back to patent US4670421A.
